# MEASURED_ON: human GPR40 (Homo sapiens)
# Sequence (O14842 whole entry): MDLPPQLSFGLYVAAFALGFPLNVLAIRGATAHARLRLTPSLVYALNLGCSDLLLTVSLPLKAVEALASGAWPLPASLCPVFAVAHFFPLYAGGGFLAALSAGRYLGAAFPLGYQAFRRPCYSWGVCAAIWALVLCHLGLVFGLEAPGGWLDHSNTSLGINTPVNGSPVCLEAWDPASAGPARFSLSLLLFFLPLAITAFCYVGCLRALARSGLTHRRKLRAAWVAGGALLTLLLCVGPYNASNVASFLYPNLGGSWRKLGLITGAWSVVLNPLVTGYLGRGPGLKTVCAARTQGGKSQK
# MEASUREMENT_PROTOCOL: cell-based
# CONDITION_NOTES: EC50 value for the Calcium Flux Primary assay, HEK293 cells over expressing human GPR40; bound stated
PARAMETER_MEASURED: EC50

Query: Reported EC50 for human GPR40 (Homo sapiens), given `CC#C[C@@H](CC(=O)O)c1ccc(OCc2ccc(CN3CCCc4cccc(OC)c43)s2)cc1` ?
Reply: < 1000 nM

----------
# MEASURED_ON: PPARγ (Homo sapiens, UniProt P37231)
# Sequence (P37231 whole entry, species assumed, one chain of several): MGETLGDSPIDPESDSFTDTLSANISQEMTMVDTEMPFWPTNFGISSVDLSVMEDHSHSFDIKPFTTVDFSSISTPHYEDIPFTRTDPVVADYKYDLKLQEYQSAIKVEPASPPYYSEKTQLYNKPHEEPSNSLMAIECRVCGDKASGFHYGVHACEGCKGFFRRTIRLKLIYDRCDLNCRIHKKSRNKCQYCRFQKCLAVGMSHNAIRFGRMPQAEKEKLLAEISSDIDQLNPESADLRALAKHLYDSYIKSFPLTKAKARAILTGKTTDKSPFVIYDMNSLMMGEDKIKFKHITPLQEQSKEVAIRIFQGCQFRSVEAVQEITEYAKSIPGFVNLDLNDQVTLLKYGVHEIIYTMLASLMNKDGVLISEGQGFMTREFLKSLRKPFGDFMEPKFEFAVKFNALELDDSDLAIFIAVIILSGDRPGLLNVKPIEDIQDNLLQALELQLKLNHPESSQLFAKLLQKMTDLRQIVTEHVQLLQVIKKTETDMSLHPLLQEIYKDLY
# MEASUREMENT_PROTOCOL: PPARγ binding assay (SPA)
# CONDITION_NOTES: tested up to 30 μM, read-out: relative IC50
# Experimental: Because GPR40 is known to be activated by ligands to PPARγ, the exemplified compound is examined in PPARα, PPARδ, and PPARγ binding and functional assays to determine the selectivity of the compound of Example 1 for GPR40. Binding affinities of the compound for the PPAR α, δ, and γ receptors are assessed using Scintillation Proximity Assay (SPA) technology. […] Ki is determined from the IC50 using the Cheng-Prussoff equation and Kd determined by saturation binding. […]
PARAMETER_MEASURED: IC50

Query: Entry `CC#C[C@@H](CC(=O)O)c1ccc(OCc2ccc(CN3CCCc4cccc(OC)c43)s2)cc1` has what IC50?
Reply: > 10 µM

----------
# MEASURED_ON: PPARα (Homo sapiens)
# Sequence (Q07869 1-468): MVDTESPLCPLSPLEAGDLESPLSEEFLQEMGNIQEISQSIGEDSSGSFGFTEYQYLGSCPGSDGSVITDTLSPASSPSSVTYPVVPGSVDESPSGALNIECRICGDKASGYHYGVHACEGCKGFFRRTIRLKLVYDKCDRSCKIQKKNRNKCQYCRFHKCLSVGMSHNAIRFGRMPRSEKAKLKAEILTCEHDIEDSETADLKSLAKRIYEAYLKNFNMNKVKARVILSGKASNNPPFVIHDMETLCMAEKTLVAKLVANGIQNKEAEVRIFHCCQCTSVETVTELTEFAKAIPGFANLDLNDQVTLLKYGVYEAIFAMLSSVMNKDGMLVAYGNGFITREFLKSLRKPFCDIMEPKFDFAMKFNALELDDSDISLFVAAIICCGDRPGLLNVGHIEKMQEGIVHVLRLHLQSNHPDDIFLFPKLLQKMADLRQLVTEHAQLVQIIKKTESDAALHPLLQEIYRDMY
# Sequence (P19793 1-462 partner): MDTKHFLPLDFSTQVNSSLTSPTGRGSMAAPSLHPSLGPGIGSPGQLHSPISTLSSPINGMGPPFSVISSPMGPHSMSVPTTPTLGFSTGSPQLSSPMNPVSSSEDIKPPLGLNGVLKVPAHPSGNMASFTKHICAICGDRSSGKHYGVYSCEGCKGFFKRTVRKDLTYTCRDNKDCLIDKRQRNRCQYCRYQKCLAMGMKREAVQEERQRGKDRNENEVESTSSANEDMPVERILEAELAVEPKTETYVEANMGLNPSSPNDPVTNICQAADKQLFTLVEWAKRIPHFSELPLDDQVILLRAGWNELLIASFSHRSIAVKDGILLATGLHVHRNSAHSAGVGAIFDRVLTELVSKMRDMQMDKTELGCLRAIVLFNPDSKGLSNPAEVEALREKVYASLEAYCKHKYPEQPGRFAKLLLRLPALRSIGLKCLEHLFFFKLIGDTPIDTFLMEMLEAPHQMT
# MEASUREMENT_PROTOCOL: PPARα binding assay (SPA)
# CONDITION_NOTES: tested up to 30 μM, read-out: relative IC50
PARAMETER_MEASURED: IC50

Query: Entry `CC#C[C@@H](CC(=O)O)c1ccc(OCc2ccc(CN3CCCc4cccc(OC)c43)s2)cc1` has what IC50?
Reply: > 10 µM

----------
# MEASURED_ON: human GPR40 (Homo sapiens)
# MEASUREMENT_PROTOCOL: cell-based
# CONDITION_NOTES: EC50, HEK293 cells over expressing human GPR40; 0.1% fatty acid free BSA; FLIPR
PARAMETER_MEASURED: EC50 (µM)
Give a bare numeral; the unit µM is implied.

Query: Entry CC#C[C@@H](CC(=O)O)c1ccc(OCc2ccc(CN3CCCc4cccc(OC)c43)s2)cc1 [Example 1] has what EC50?
Reply: 0.152

----------
# MEASURED_ON: PPARδ (Homo sapiens, UniProt Q03181)
# Sequence (Q03181 whole entry, species assumed, one chain of several): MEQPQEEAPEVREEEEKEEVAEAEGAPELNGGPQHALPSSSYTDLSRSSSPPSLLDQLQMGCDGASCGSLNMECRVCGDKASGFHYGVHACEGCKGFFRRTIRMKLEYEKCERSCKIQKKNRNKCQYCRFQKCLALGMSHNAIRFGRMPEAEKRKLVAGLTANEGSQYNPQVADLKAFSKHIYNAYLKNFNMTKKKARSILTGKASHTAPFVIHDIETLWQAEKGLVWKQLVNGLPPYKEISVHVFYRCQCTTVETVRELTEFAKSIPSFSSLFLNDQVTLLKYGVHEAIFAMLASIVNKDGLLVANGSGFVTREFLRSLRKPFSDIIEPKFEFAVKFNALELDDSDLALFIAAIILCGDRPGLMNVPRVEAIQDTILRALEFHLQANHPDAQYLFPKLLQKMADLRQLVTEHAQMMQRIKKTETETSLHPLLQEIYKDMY
# MEASUREMENT_PROTOCOL: PPARδ binding assay (SPA)
# CONDITION_NOTES: tested up to 30 μM, read-out: relative IC50
PARAMETER_MEASURED: IC50

Query: Entry CC#C[C@@H](CC(=O)O)c1ccc(OCc2ccc(CN3CCCc4cccc(OC)c43)s2)cc1 [Example 1] has what IC50?
Reply: > 10 µM
